System: Mus musculus
methodSummary: Toxicity in C57BL/6 mouse allografted with mouse B16 cells assessed as animal death at 1.20 mg/kg, ip administered on days 1,5 and 9
Format: organism-based
Set-up: dose 1.2 mg/kg, route intraperitoneal
recordedConditions: in vivo, 1.2 mg/kg
experimentalEndpoint: Activity

INSERT INTO measurements (structurestring, experimentalresult) VALUES
  ('CC[C@]1(O)C[C@H]2CN(CCc3c([nH]c4ccccc34)[C@@](C(=O)OC)(c3cc4c(cc3OC)N(C)[C@H]3[C@@](O)(C(=O)NCCS)[C@H](O)[C@]5(CC)C=CCN6CC[C@]43[C@@H]65)C2)C1.O=S(=O)(O)O', 'Toxic'),
  ('CC[C@]1(O)C[C@H]2CN(CCc3c([nH]c4ccccc34)[C@@](C(=O)OC)(c3cc4c(cc3OC)N(C)[C@H]3[C@@](O)(C(=O)NCCSC)[C@H](O)[C@]5(CC)C=CCN6CC[C@]43[C@@H]65)C2)C1.O=S(=O)(O)O', 'Toxic'),
  ('CC[C@]1(O)C[C@H]2CN(CCc3c([nH]c4ccccc34)[C@@](C(=O)OC)(c3cc4c(cc3OC)N(C)[C@H]3[C@@](O)(C(=O)NCCOC)[C@H](O)[C@]5(CC)C=CCN6CC[C@]43[C@@H]65)C2)C1.O=S(=O)(O)O', 'Toxic'),
  ('CC[C@]1(O)C[C@H]2CN(CCc3c([nH]c4ccccc34)[C@@](C(=O)OC)(c3cc4c(cc3OC)N(C)[C@H]3[C@@](O)(C(=O)NCCCSC)[C@H](O)[C@]5(CC)C=CCN6CC[C@]43[C@@H]65)C2)C1.O=S(=O)(O)O', 'Toxic');

====

methodSummary: Antitumor activity against mouse Ridgway osteogenic sarcoma allografted in AKR mouse assessed as tumor growth inhibition at 0.20 mg/kg, ip administered daily for 8 to 10 days compound treatment commenced 8 days after tumor implantation
Format: functional
recordedConditions: route intraperitoneal, read-out: TGI
Property: inhibition in vivo at 0.2 mg/kg; scope: individual compounds
experimentalEndpoint: inhibition in vivo at 0.2 mg/kg (%)

INSERT INTO results (compound, resultunits, experimentalresult) VALUES
  ('CC[C@]1(O)C[C@H]2CN(CCc3c([nH]c4ccccc34)[C@@](C(=O)OC)(c3cc4c(cc3OC)N(C)[C@H]3[C@@](O)(C(=O)NCc5ccccc5)[C@H](O)[C@]5(CC)C=CCN6CC[C@]43[C@@H]65)C2)C1', '%', 0),
  ('CC[C@]1(O)C[C@H]2CN(CCc3c([nH]c4ccccc34)[C@@](C(=O)OC)(c3cc4c(cc3OC)N(C)[C@H]3[C@@](O)(C(=O)N5CCCC5)[C@H](O)[C@]5(CC)C=CCN6CC[C@]43[C@@H]65)C2)C1.O=S(=O)(O)O', '%', 51),
  ('CC[C@]1(O)C[C@H]2CN(CCc3c([nH]c4ccccc34)[C@@](C(=O)OC)(c3cc4c(cc3OC)N(C)[C@H]3[C@@](O)(C(=O)NCC(O)CO)[C@H](O)[C@]5(CC)C=CCN6CC[C@]43[C@@H]65)C2)C1 (stereo partly drawn)', '%', 26),
  ('CC[C@]1(O)C[C@H]2CN(CCc3c([nH]c4ccccc34)[C@@](C(=O)OC)(c3cc4c(cc3OC)N(C)[C@H]3[C@@](O)(C(=O)NCCOC(C)=O)[C@H](O)[C@]5(CC)C=CCN6CC[C@]43[C@@H]65)C2)C1.O=S(=O)(O)O', '%', 76),
  ('CC[C@]1(O)C[C@H]2CN(CCc3c([nH]c4ccccc34)[C@@](C(=O)OC)(c3cc4c(cc3OC)N(C)[C@H]3[C@@](O)(C(=O)NCCCO)[C@H](O)[C@]5(CC)C=CCN6CC[C@]43[C@@H]65)C2)C1', '%', 76),
  ('CC[C@]1(O)C[C@H]2CN(CCc3c([nH]c4ccccc34)[C@@](C(=O)OC)(c3cc4c(cc3OC)N(C)[C@H]3[C@@](O)(C(=O)NC)[C@H](O)[C@]5(CC)C=CCN6CC[C@]43[C@@H]65)C2)C1.O=S(=O)(O)O', '%', 51),
  ('CCCCCCNC(=O)[C@@]1(O)[C@H](O)[C@]2(CC)C=CCN3CC[C@@]4(c5cc([C@@]6(C(=O)OC)C[C@@H]7CN(CCc8c6[nH]c6ccccc86)C[C@](O)(CC)C7)c(OC)cc5N(C)[C@@H]14)[C@@H]32', '%', 0),
  ('CCCC(=O)OCCNC(=O)[C@@]1(O)[C@H](O)[C@]2(CC)C=CCN3CC[C@@]4(c5cc([C@@]6(C(=O)OC)C[C@@H]7CN(CCc8c6[nH]c6ccccc86)C[C@](O)(CC)C7)c(OC)cc5N(C)[C@@H]14)[C@@H]32.O=S(=O)(O)O', '%', 76);
